Cited source: patent US20200187499A1

tested on: ABUTH; test: Pre-emergence herbicidal action; type: in vivo; conditions: Table 2, pre-emergence (PE), 320 g/ha, scored after 3 weeks
measurement-kind: Herbicidal action against ABUTH (%)
Number only, in %; omit the unit.

mol-smiles: COc1c(F)ccc(COC(=O)c2nc(-c3ccc4ccsc4c3)cc(N)c2Cl)c1F
output-unit: %
Herbicidal action against ABUTH: 0

mol-smiles: Nc1cc(-c2ccc3occc3c2)nc(C(=O)OCc2ccc(F)cc2)c1Cl
output-unit: %
Herbicidal action against ABUTH: 50

mol-smiles: COc1ccc(COC(=O)c2nc(-c3ccc4ccoc4c3)c(F)c(N)c2Cl)cc1
output-unit: %
Herbicidal action against ABUTH: 80

Task item: Please list Herbicidal action against ABUTH recorded for the compound Nc1cc(-c2ccc3occc3c2)nc(C(=O)OCc2cc(F)c(F)cc2F)c1Cl
Reply: 20

Task item: Note Herbicidal action against ABUTH for the compound shown: Nc1cc(-c2ccc3occc3c2)nc(C(=O)OCc2c(F)cc(F)cc2F)c1Cl
Reply: 50

Task item: Determine from records and report Herbicidal action against ABUTH for Nc1cc(-c2ccc3sccc3c2)nc(C(=O)OCc2ccc(F)cc2F)c1Cl
Reply: 40

Task item: Indicate the recorded Herbicidal action against ABUTH value for this compound: Nc1cc(-c2ccc3occc3c2)nc(C(=O)OCc2ccc(F)c(F)c2F)c1Cl
Reply: 30

Task item: Return reported Herbicidal action against ABUTH. Input compound: Nc1cc(-c2ccc3sccc3c2)nc(C(=O)OCc2cccc(F)c2)c1Cl
Reply: 70
